Let's look at some sequences and their measured glucose levels.
assaySummary: Plasma glucose in C57BL/6 mice (glucose oxidase assay)
Type: in vivo, mouse
settings: Week 0 (before treatment), 50 mg/kg/week
Oligonucleotides are written 5' to 3', each unit as a sugar letter and its base; * is a phosphorothioate linkage, no mark a phosphodiester; rarer units and linkages stand in square brackets, end groups in braces. Plain capitals give the bases only. e = 2'-O-(2-methoxyethyl) (MOE); [5mC] = 5-methylcytosine; d = 2'-deoxy (DNA)
readoutLabel: glucose levels (mg/dL)

>  <biopolymerSequence>
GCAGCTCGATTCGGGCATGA (antisense eG*e[5mC]*eA*eG*e[5mC]*dT*d[5mC]*dG*dA*dT*dT*d[5mC]*dG*dG*dG*e[5mC]*eA*eT*eG*eA) [ISIS 447118]

>  <assayValue>
242

$$$$
>  <biopolymerSequence>
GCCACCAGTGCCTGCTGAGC (antisense eG*e[5mC]*e[5mC]*eA*e[5mC]*d[5mC]*dA*dG*dT*dG*d[5mC]*d[5mC]*dT*dG*d[5mC]*eT*eG*eA*eG*e[5mC]) [ISIS 447143]

>  <assayValue>
238

$$$$
>  <biopolymerSequence>
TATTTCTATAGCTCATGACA (antisense eT*eA*eT*eT*eT*d[5mC]*dT*dA*dT*dA*dG*d[5mC]*dT*d[5mC]*dA*eT*eG*eA*e[5mC]*eA) [ISIS 447144]

>  <assayValue>
222

$$$$
>  <biopolymerSequence>
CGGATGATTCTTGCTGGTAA (antisense e[5mC]*eG*eG*eA*eT*dG*dA*dT*dT*d[5mC]*dT*dT*dG*d[5mC]*dT*eG*eG*eT*eA*eA) [ISIS 447114]

>  <assayValue>
293

$$$$

* * *

assaySummary: Liver function: plasma transaminases (ALT, AST) in C57BL/6 mice
Format: in vivo, mouse
settings: Week 6, 50 mg/kg/week
Oligonucleotides are written 5' to 3', each unit as a sugar letter and its base; * is a phosphorothioate linkage, no mark a phosphodiester; rarer units and linkages stand in square brackets, end groups in braces. Plain capitals give the bases only. e = 2'-O-(2-methoxyethyl) (MOE); [5mC] = 5-methylcytosine; d = 2'-deoxy (DNA)

>  <biopolymerSequence>
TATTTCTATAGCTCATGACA (antisense eT*eA*eT*eT*eT*d[5mC]*dT*dA*dT*dA*dG*d[5mC]*dT*d[5mC]*dA*eT*eG*eA*e[5mC]*eA) [ISIS 447144]

>  <unit>
IU/L

>  <ALT levels>
69

$$$$
>  <biopolymerSequence>
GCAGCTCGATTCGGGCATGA (antisense eG*e[5mC]*eA*eG*e[5mC]*dT*d[5mC]*dG*dA*dT*dT*d[5mC]*dG*dG*dG*e[5mC]*eA*eT*eG*eA) [ISIS 447118]

>  <unit>
IU/L

>  <ALT levels>
50

$$$$
>  <biopolymerSequence>
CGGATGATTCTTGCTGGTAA (antisense e[5mC]*eG*eG*eA*eT*dG*dA*dT*dT*d[5mC]*dT*dT*dG*d[5mC]*dT*eG*eG*eT*eA*eA) [ISIS 447114]

>  <unit>
IU/L

>  <ALT levels>
40

$$$$
>  <biopolymerSequence>
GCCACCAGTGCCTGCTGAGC (antisense eG*e[5mC]*e[5mC]*eA*e[5mC]*d[5mC]*dA*dG*dT*dG*d[5mC]*d[5mC]*dT*dG*d[5mC]*eT*eG*eA*eG*e[5mC]) [ISIS 447143]

>  <unit>
IU/L

>  <ALT levels>
45

$$$$
